# SYSTEM: Voltage-gated inwardly rectifying potassium channel KCNH2 (Homo sapiens)
# Sequence (Q12809 whole entry): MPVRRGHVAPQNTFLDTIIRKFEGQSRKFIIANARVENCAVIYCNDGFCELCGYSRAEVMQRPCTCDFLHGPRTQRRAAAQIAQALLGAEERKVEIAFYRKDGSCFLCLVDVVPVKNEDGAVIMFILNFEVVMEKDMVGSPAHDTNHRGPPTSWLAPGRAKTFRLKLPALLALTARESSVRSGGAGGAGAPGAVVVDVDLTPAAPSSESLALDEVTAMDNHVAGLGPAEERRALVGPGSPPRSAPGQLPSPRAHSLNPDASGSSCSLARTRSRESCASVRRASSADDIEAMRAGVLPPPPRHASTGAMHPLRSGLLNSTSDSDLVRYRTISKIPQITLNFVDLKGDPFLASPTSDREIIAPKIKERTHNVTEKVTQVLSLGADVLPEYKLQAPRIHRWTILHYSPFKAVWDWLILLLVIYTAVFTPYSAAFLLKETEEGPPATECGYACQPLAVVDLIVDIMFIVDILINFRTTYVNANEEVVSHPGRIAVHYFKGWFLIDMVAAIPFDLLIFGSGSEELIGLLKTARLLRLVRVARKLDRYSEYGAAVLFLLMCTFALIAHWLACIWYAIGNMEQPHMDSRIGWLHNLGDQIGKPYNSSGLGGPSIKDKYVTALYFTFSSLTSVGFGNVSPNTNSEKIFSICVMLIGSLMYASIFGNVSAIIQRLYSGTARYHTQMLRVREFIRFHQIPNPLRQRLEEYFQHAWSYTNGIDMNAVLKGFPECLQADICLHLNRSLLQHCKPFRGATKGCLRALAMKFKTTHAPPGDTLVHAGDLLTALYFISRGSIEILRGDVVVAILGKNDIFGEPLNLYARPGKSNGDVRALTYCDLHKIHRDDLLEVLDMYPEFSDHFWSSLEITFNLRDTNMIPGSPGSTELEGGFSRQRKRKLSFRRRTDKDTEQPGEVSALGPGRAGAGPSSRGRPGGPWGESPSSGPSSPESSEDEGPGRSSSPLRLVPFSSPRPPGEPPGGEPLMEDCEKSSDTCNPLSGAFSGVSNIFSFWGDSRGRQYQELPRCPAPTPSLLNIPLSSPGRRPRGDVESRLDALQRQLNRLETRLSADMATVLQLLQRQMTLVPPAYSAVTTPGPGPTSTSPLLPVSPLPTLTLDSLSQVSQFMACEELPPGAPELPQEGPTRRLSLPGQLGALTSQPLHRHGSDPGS
# PROCEDURE_TEXT: Inhibition of human ERG stably expressed in HEK293 cells by whole-cell manual patch clamp method
pIC50: −log10 of the molar value.
Please provide measured pIC50 for the entries that follow.

In: Data request, read-out pIC50, for O=c1c(NCc2ccccn2)c(Nc2ccc3scnc3c2)c1=O
Out: < 5.00

In: Another molecule: O=c1c(NCc2ccccn2)c(Nc2ccc(N3CCSCC3)cc2)c1=O
Out: < 4.52

In: Another molecule: O=c1c(NCc2ccccn2)c(Nc2ccc3c(c2)OCO3)c1=O
Out: < 4.52

In: Another molecule: Cc1cc(Nc2c(NCc3ccccn3)c(=O)c2=O)ccc1N1CCSCC1
Out: < 5.00

In: Another molecule: O=c1c(NCc2ccccn2)c(Nc2ccc3c(c2)CCC3)c1=O
Out: < 4.52

In: Another molecule: O=c1c(NCc2ccccn2)c(Nc2ccc(N3CCOCC3)cc2)c1=O
Out: < 4.52

In: Another molecule: O=c1c(NCc2ccccn2)c(-c2ccc(N3CCOCC3)cc2)c1=O
Out: < 4.52
